Reference source: patent US20040224958A1

Target: cdk2/cyclinE (Homo sapiens, UniProt P24941)
Experiment: Cyclin-Dependent Kinase Assay cdk2/cyclinE
Conditions: cdk2/E IC50
pIC50: −log10 of the molar value.
READOUT NAME: pIC50

CCCn1c(=O)ccc2cnc(Nc3ccc4[nH]ncc4c3)nc21 [Example 324]	7.28
CCCCn1c(=O)ccc2cnc(Nc3ccc(Br)c(C(F)(F)F)c3)nc21 [Example 374]	6.18
CC(=O)Nc1cc(Nc2ncc3ccc(=O)n(C(C)C)c3n2)ccc1C#N [Example 424]	6.44
COc1ccc(Nc2ncc3ccc(=O)n(C(C)C)c3n2)cc1F [Example 422]	6.77
CCC(C)n1c(=O)ccc2cnc(Nc3ccc(O)cc3F)nc21 (stereo not shown) [Example 451]	6.62
COc1cc(Nc2ncc3ccc(=O)n(C4CCCC4)c3n2)cc(C(F)(F)F)c1 [Example 543]	6.30
CC(C)n1c(=O)ccc2cnc(Nc3ccc4[nH]ccc4c3)nc21 [Example 409]	7.00
CCC(CC)n1c(=O)ccc2cnc(Nc3cccc(O)c3)nc21 [Example 512]	7.25
CCC(CC)n1c(=O)ccc2cnc(Nc3ccc(F)c(C)c3)nc21 [Example 503]	7.44
CC(C)(C)OC(=O)Nc1ccc(Nc2ncc3ccc(=O)n(C4CCCC4)c3n2)cc1 [Example 535]	7.05
COc1ccc(Nc2ncc3ccc(=O)n(C)c3n2)cc1OC [Example 617]	5.54
CCC(CC)n1c(=O)ccc2cnc(Nc3ccc(OC(F)(F)F)cc3)nc21 [Example 515]	6.64
CCC(CC)n1c(=O)ccc2cnc(Nc3ccc(C)c(C)c3)nc21 [Example 491]	6.75
CCCn1c(=O)ccc2cnc(Nc3ccc(I)c(Cl)c3)nc21 [Example 344]	6.33
CCC(CC)n1c(=O)ccc2cnc(Nc3ccc(Cl)c(C)c3)nc21 [Example 500]	7.13
CCC(CC)n1c(=O)ccc2cnc(Nc3ccc(F)c(Cl)c3)nc21 [Example 481]	7.16
CCC(CC)n1c(=O)ccc2cnc(Nc3cc(OC)cc(C(F)(F)F)c3)nc21 [Example 508]	6.55
CCC(CC)n1c(=O)ccc2cnc(Nc3ccc(OC)c(F)c3)nc21 [Example 505]	7.17
CCCCn1c(=O)ccc2cnc(Nc3cc(OC)c(OC)c(OC)c3)nc21 [Example 389]	6.49

----------
Biological target: cdk2/cyclinE (Homo sapiens)
Experiment: Cyclin-Dependent Kinase Assay cdk2/cyclinE
Settings: cdk2/E IC50, Table 1
pIC50: −log10 of the molar value.
Measured pIC50 of individual entries
READOUT NAME: pIC50

O=c1ccc2cnc(Nc3ccc(-n4cccc4)cc3)nc2n1C1CCCCC1	6.26
O=c1ccc2cnc(Nc3ccc(N4CCCCC4)cc3)nc2n1[C@H]1C[C@H]2CC[C@@H]1C2 (relative stereo)	5.52
O=c1ccc2cnc(Nc3ccc(OC(F)(F)C(F)F)cc3)nc2n1C1CC2CCC1C2 (stereo not drawn)	4.50
O=c1ccc2cnc(Nc3ccc(N4CCC(CCO)CC4)cc3)nc2n1C1CC2CCC1C2 (stereo not drawn)	6.73
O=c1ccc2cnc(Nc3ccc(F)c(F)c3)nc2n1C1CC2CCC1C2 (stereo not drawn)	7.30
CC1CCN(c2ccc(Nc3ncc4ccc(=O)n(C5CCCCC5)c4n3)cc2)CC1	7.71
CN(C)c1ccc(Nc2ncc3ccc(=O)n(CCCOCc4ccccc4)c3n2)cc1	5.58
O=c1ccc2cnc(Nc3ccc(N4CCC(CCN5CCOCC5)CC4)cc3)nc2n1C1CCCCC1	6.70
O=c1ccc2cnc(Nc3ccc(N4CCCC(O)C4)cc3)nc2n1C1CC2CCC1C2 (stereo not drawn)	7.19
O=c1ccc2cnc(Nc3ccc(N4CCCCC4CO)cc3)nc2n1C1CC2CCC1C2 (stereo not drawn)	6.83
O=c1ccc2cnc(Nc3ccc(N4CCC(O)CC4)cc3)nc2n1C1CCCC1	7.36
O=c1ccc2cnc(Nc3ccc(N4CCC(O)CC4)cc3)nc2n1C1CCCCC1	7.62
O=c1ccc2cnc(Nc3ccc(-n4cccn4)cc3)nc2n1C1CCCCC1	7.06
CCN(CC)CCOc1ccc(Nc2ncc3ccc(=O)n(C4CC5CCC4C5)c3n2)cc1 (stereo not drawn)	7.12
O=c1ccc2cnc(Nc3ccc(-n4cccc4)cc3)nc2n1C1CCCC1	6.92
O=c1ccc2cnc(Nc3ccc(N4CCC(CCCO)CC4)cc3)nc2n1C1CCCC1	5.63
O=c1ccc2cnc(Nc3ccc(N4CCCCC4)cc3)nc2n1C1CCOCC1	5.12
CCN(CC)CCOc1ccc(Nc2ncc3ccc(=O)n(-c4ccccc4)c3n2)cc1	5.89
O=c1ccc2cnc(Nc3ccc(F)cc3)nc2n1C1CCCCC1	7.27
CN1CCN(c2ccc(Nc3ncc4ccc(=O)n(CCOCc5ccccc5)c4n3)cc2)CC1	4.63
O=c1ccc2cnc(Nc3ccccc3)nc2n1Cc1ccccc1	4.47
CN1CCN(c2ccc(Nc3ncc4ccc(=O)n(C5CCCCC5)c4n3)cc2)CC1	7.71
O=c1ccc2cnc(Nc3ccc(N4CCc5ccccc5C4)cc3)nc2n1C1CCCCC1	6.49
CC1CCCN(c2ccc(Nc3ncc4ccc(=O)n(C5CCCCC5)c4n3)cc2)C1 (stereo not drawn)	6.36
O=c1ccc2cnc(Nc3ccc(N4CCC(CCO)CC4)cc3)nc2n1C1CCCC1	7.33
CCN(CC)CCOc1ccc(Nc2ncc3ccc(=O)n(CCOCc4ccccc4)c3n2)cc1	5.58
O=c1ccc2cnc(Nc3ccc(N4CCC(CCCO)CC4)cc3)nc2n1C1CC2CCC1C2 (stereo not drawn)	6.90
O=c1ccc2cnc(Nc3ccc(F)cc3)nc2n1C1CC2CCC1C2 (stereo not drawn)	7.85
O=c1ccc2cnc(Nc3ccc(N4CCC(O)CC4)cc3)nc2n1C1CC2CCC1C2 (stereo not drawn)	7.25
O=c1ccc2cnc(Nc3ccc(-c4ccccc4)cc3)nc2n1C1CC2CCC1C2 (stereo not drawn)	5.71
O=c1ccc2cnc(Nc3ccc(N4CCCC(CO)C4)cc3)nc2n1C1CC2CCC1C2 (stereo not drawn)	7.07
CC1CN(c2ccc(Nc3ncc4ccc(=O)n(C5CCCCC5)c4n3)cc2)CC(C)N1 (stereo not drawn)	7.34
CCN(CC)CCOc1ccc(Nc2ncc3ccc(=O)n(C4CCCCC4)c3n2)cc1	7.04
O=c1ccc2cnc(Nc3ccc(N4CCCCC4)cc3)nc2n1C1CCOC1 (racemic)	5.72
CN1CCN(c2ccc(Nc3ncc4ccc(=O)n(C5CC6CCC5C6)c4n3)cc2)CC1 (stereo not drawn)	6.99
CCN(CC)CCOc1ccc(Nc2ncc3ccc(=O)n(C4CCCC4)c3n2)cc1	6.96
